The entries below come with measured % release after heating (55° C.) at time (h) 2 values attached.
assay: Heat-induced release of drug surrogate (alcohol 11 or amine 12) from linkers in methanol, HPLC quantification; assay type: physicochemical; details: release of alcohol 11; methanol ca. 0.01 M, 55° C., 2 h; mean ± SD, n = 3
quantity_name: % release after heating (55° C.) at time (h) 2 (%)

>>> observed_result("C=CCNCCCC(=O)OCCc1c2ccccc2cc2ccccc12")
44.4
>>> observed_result("C=CCNCCC(C)(C)CCC(=O)OCCc1c2ccccc2cc2ccccc12")
4.1
>>> observed_result("C=CCNCCOC(=O)OCCc1c2ccccc2cc2ccccc12")
48.3
>>> observed_result("C=CCNCCCCCC(=O)OCCc1c2ccccc2cc2ccccc12")
3.1
>>> observed_result("C=CCNCCC(C)(C)COC(=O)OCCc1c2ccccc2cc2ccccc12")
5.7
>>> observed_result("C=CCNCCCOC(=O)OCCc1c2ccccc2cc2ccccc12")
24.8
>>> observed_result("C=CCNCCCCC(=O)OCCc1c2ccccc2cc2ccccc12")
30.5

====

Quick reference: % release after heating (55° C.) at time (h) 0.25 of the listed items.
assay: Heat-induced release of drug surrogate (alcohol 11 or amine 12) from linkers in methanol, HPLC quantification; format: physicochemical; settings: release of alcohol 11; methanol ca. 0.01 M, 55° C., 0.25 h; mean ± SD, n = 3
quantity_name: % release after heating (55° C.) at time (h) 0.25 (%)

>>> observed_result("C=CCNCCCCCC(=O)OCCc1c2ccccc2cc2ccccc12")
2.1
>>> observed_result("C=CCNCCC(C)(C)CCC(=O)OCCc1c2ccccc2cc2ccccc12")
2.0
>>> observed_result("C=CCNCCOC(=O)OCCc1c2ccccc2cc2ccccc12")
23.5
>>> observed_result("C=CCNCCCCC(=O)OCCc1c2ccccc2cc2ccccc12")
20.9
>>> observed_result("C=CCNCCCC(=O)OCCc1c2ccccc2cc2ccccc12")
24.6
>>> observed_result("C=CCNCCC(C)(C)COC(=O)OCCc1c2ccccc2cc2ccccc12")
1.8
>>> observed_result("C=CCNCCCOC(=O)OCCc1c2ccccc2cc2ccccc12")
12.0

====

assay: Heat-induced release of drug surrogate (alcohol 11 or amine 12) from linkers in methanol, HPLC quantification; format: physicochemical; settings: release of alcohol 11; methanol ca. 0.01 M, 55° C., 0.75 h; mean ± SD, n = 3
Lab note: cut-off is 20%. Strictly less in % release after heating (55° C.) at time (h) 0.75 is true (1). Exactly 20% or more is false (0).

>>> category("C=CCNCCCCCC(=O)OCCc1c2ccccc2cc2ccccc12")
"true (1)"
>>> category("C=CCNCCCC(=O)OCCc1c2ccccc2cc2ccccc12")
"false (0)"
>>> category("C=CCNCCCOC(=O)OCCc1c2ccccc2cc2ccccc12")
"true (1)"
>>> category("C=CCNCCCCC(=O)OCCc1c2ccccc2cc2ccccc12")
"false (0)"
>>> category("C=CCNCCC(C)(C)CCC(=O)OCCc1c2ccccc2cc2ccccc12")
"true (1)"
>>> category("C=CCNCCOC(=O)OCCc1c2ccccc2cc2ccccc12")
"false (0)"
>>> category("C=CCNCCC(C)(C)COC(=O)OCCc1c2ccccc2cc2ccccc12")
"true (1)"
